measurementProtocol: Pharmacokinetic test in rats, intravenous injection
Type: in vivo, SD rats
testSettings: male, SD, rat, plasma, iv, 2 mg/kg, rats, iv 2 mg/kg, individual rats 1-4 (Table 9); read-out: AUC0-1
resultType: AUC(0-t) (ng·h/mL)
Please respond with the number in ng·h/mL and leave the unit unwritten.

Lookup: Endpoint output: AUC(0-t) of [2H]C([2H])([2H])c1ccc(Sc2ccccc2N2CCNCC2)c(C([2H])([2H])[2H])c1 . Value?
Found: 462

====

Examples of compounds with documented concentration at 12 h follow.
measurementProtocol: Pharmacokinetic test in rats, intravenous injection
Format: in vivo, SD rats
testSettings: male, SD, rat, plasma, intravenous, 2 mg/kg, 2 mg/kg iv, 12 h, mean; read-out: Concentrations in Plasma of Rats after Intravenous Injection, Mean ± SD
Please respond with the number in ng/mL and leave the unit unwritten.

• Cc1ccc(Sc2ccccc2N2CCNCC2)c(C)c1 = 7.85

Let us move to another entry and its concentration at 12 h.
Lookup: Endpoint output: concentration at 12 h of [2H]C([2H])([2H])c1ccc(Sc2ccccc2N2CCNCC2)c(C([2H])([2H])[2H])c1 . Value?
Found: 7.75

====

measurementProtocol: Pharmacokinetic test in rats, intravenous injection
Type: in vivo, SD rats
testSettings: male, Sprague-Dawley, rat, plasma, intravenous, 2 mg/kg, 2 mg/kg iv, 1 h, individual rats; read-out: Concentrations in Plasma of Rats after Intravenous Injection
resultType: concentration at 1 h (ng/mL)
Please respond with the number in ng/mL and leave the unit unwritten.

* [2H]C([2H])([2H])c1ccc(Sc2ccccc2N2CCNCC2)c(C([2H])([2H])[2H])c1 | 72.2

Let us move to another entry and its concentration at 1 h.
Lookup: Endpoint output: concentration at 1 h of Cc1ccc(Sc2ccccc2N2CCNCC2)c(C)c1 . Value?
Found: 72.2

====

Examples of molecules with documented MRT inf follow.
measurementProtocol: Pharmacokinetic test in rats, gavage administration
Type: in vivo, SD rats
testSettings: both sexes, SD, rat, plasma, po, 20 mg/kg, rats, oral 20 mg/kg, individual rats 1-6; read-out: MRT0-∞

- Cc1ccc(Sc2ccccc2N2CCNCC2)c(C)c1: 4.49 h

Lookup: Endpoint output: MRT inf of [2H]C([2H])([2H])c1ccc(Sc2ccccc2N2CCNCC2)c(C([2H])([2H])[2H])c1 . Value?
Found: 5.62 h

====

measurementProtocol: Pharmacokinetic test in rats, intravenous injection
Type: in vivo, SD rats
testSettings: male, Sprague-Dawley, rat, plasma, intravenous, 2 mg/kg, 2 mg/kg iv, 0.25 h, mean; read-out: Concentrations in Plasma of Rats after Intravenous Injection, Mean ± SD
Examples of compounds with documented concentration at 0.25 h follow.
Please respond with the number in µg/mL and leave the unit unwritten.

• Cc1ccc(Sc2ccccc2N2CCNCC2)c(C)c1 = 0.137

Let us move to another entry and its concentration at 0.25 h.
Lookup: Endpoint output: concentration at 0.25 h of [2H]C([2H])([2H])c1ccc(Sc2ccccc2N2CCNCC2)c(C([2H])([2H])[2H])c1 . Value?
Found: 0.0778

====

measurementProtocol: Pharmacokinetic test in rats, intravenous injection
Type: in vivo, SD rats
testSettings: male, SD, rat, plasma, iv, 2 mg/kg, rats, iv 2 mg/kg, n = 3 (Table 11); read-out: AUC0-t, Mean ± SD
resultType: AUC(0-t) (ng·h/mL)
Please respond with the number in ng·h/mL and leave the unit unwritten.

Lookup: Endpoint output: AUC(0-t) of Cc1ccc(Sc2ccccc2N2CCNCC2)c(C)c1 . Value?
Found: 619

====

Examples of compounds with documented MRT inf follow.
measurementProtocol: Pharmacokinetic test in rats, intravenous injection
Assay type: in vivo, SD rats
testSettings: male, SD, rat, plasma, iv, 2 mg/kg, rats, iv 2 mg/kg, individual rats; read-out: MRT0-∞
Please respond with the number in h and leave the unit unwritten.

- Cc1ccc(Sc2ccccc2N2CCNCC2)c(C)c1: 6.56

Let us move to another entry and its MRT inf.
Lookup: Endpoint output: MRT inf of [2H]C([2H])([2H])c1ccc(Sc2ccccc2N2CCNCC2)c(C([2H])([2H])[2H])c1 . Value?
Found: 6.59

====

measurementProtocol: Pharmacokinetic test in rats, intravenous injection
Type: in vivo, SD rats
testSettings: male, SD, rat, plasma, iv, 2 mg/kg, rats, iv 2 mg/kg, individual rats; read-out: Cmax
Examples of molecules with documented Cmax follow.
Be sure to follow the number with its unit.

Lookup: Endpoint output: Cmax of [2H]C([2H])([2H])c1ccc(Sc2ccccc2N2CCNCC2)c(C([2H])([2H])[2H])c1 [XX] . Value?
Found: 134 ng/mL

Lookup: Endpoint output: Cmax of Cc1ccc(Sc2ccccc2N2CCNCC2)c(C)c1 [YY] . Value?
Found: 225 ng/mL

====

measurementProtocol: Pharmacokinetic test in rats, gavage administration
Format: in vivo, SD rats
testSettings: both sexes, Sprague-Dawley, rat, plasma, oral, 20 mg/kg, 20 mg/kg oral, 3 h, mean of 6 rats; read-out: Concentrations in Plasma of Rats after Oral Administration, Mean ± SD
resultType: concentration at 3 h
Be sure to follow the number with its unit.

* Cc1ccc(Sc2ccccc2N2CCNCC2)c(C)c1 | 59.9 ng/mL

Let us move to another entry and its concentration at 3 h.
Lookup: Endpoint output: concentration at 3 h of [2H]C([2H])([2H])c1ccc(Sc2ccccc2N2CCNCC2)c(C([2H])([2H])[2H])c1 . Value?
Found: 68.7 ng/mL

====

measurementProtocol: Pharmacokinetic test in rats, gavage administration;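 on AUC0-1: plasma area under the curve AUC0-1 in μg·h/L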
Type: in vivo, SD rats
testSettings: both sexes, SD, rat, plasma, po, 20 mg/kg, rats, oral 20 mg/kg, individual rats 1-6; read-out: AUC0-1
resultType: AUC(0-t) (µg·h/mL)
Please respond with the number in µg·h/mL and leave the unit unwritten.

Lookup: Endpoint output: AUC(0-t) of [2H]C([2H])([2H])c1ccc(Sc2ccccc2N2CCNCC2)c(C([2H])([2H])[2H])c1 . Value?
Found: 0.524

====

measurementProtocol: Pharmacokinetic test in rats, gavage administration
Format: in vivo, SD rats
testSettings: both sexes, SD, rat, plasma, po, 20 mg/kg, rats, oral 20 mg/kg, n = 6; read-out: AUC0-∞, Mean ± SD
resultType: AUC(0-inf) (ng·h/mL)
Please respond with the number in ng·h/mL and leave the unit unwritten.

- Cc1ccc(Sc2ccccc2N2CCNCC2)c(C)c1: 491

Let us move to another entry and its AUC(0-inf).
Lookup: Endpoint output: AUC(0-inf) of [2H]C([2H])([2H])c1ccc(Sc2ccccc2N2CCNCC2)c(C([2H])([2H])[2H])c1 . Value?
Found: 586

====

measurementProtocol: Pharmacokinetic test in rats, gavage administration
Format: in vivo, SD rats
testSettings: both sexes, SD, rat, plasma, po, 20 mg/kg, rats, oral 20 mg/kg, n = 6; read-out: Cmax, Mean ± SD
Procedure: The preferred compound of the present disclosure was assessed in rats for its pharmacokinetic profile. SD rats, male and female, weighing 150 to 250 g Mobile phase: 10 mM ammonium formate aqueous solution:methanol=15:85 The ionization source was electrospray ionization source. The detection mode was positive mode. […] The ion reaction for the quantitative analysis was the following: m/z was 305.2\150.0 for XX, and 256.1\167.1 for diphenhydramine (the internal standard). […]
Examples of compounds with documented Cmax follow.
Be sure to follow the number with its unit.

• Cc1ccc(Sc2ccccc2N2CCNCC2)c(C)c1 [YY] = 99.6 ng/mL

Lookup: Endpoint output: Cmax of [2H]C([2H])([2H])c1ccc(Sc2ccccc2N2CCNCC2)c(C([2H])([2H])[2H])c1 [XX] . Value?
Found: 105 ng/mL

====

measurementProtocol: Pharmacokinetic test in rats, intravenous injection
Type: in vivo, SD rats
testSettings: male, SD, rat, plasma, iv, 2 mg/kg, rats, iv 2 mg/kg, n = 4 (Table 9); read-out: AUC0-1, Mean ± SD
resultType: AUC(0-t) (ng·h/mL)
Please respond with the number in ng·h/mL and leave the unit unwritten.

Lookup: Endpoint output: AUC(0-t) of [2H]C([2H])([2H])c1ccc(Sc2ccccc2N2CCNCC2)c(C([2H])([2H])[2H])c1 . Value?
Found: 461

====

measurementProtocol: Pharmacokinetic test in rats, gavage administration
Assay type: in vivo, SD rats
testSettings: both sexes, Sprague-Dawley, rat, plasma, oral, 20 mg/kg, 20 mg/kg oral, 10 h, mean of 6 rats; read-out: Concentrations in Plasma of Rats after Oral Administration, Mean ± SD
Examples of molecules with documented concentration at 10 h follow.
Please respond with the number in ng/mL and leave the unit unwritten.

* [2H]C([2H])([2H])c1ccc(Sc2ccccc2N2CCNCC2)c(C([2H])([2H])[2H])c1 | 16.5

Let us move to another entry and its concentration at 10 h.
Lookup: Endpoint output: concentration at 10 h of Cc1ccc(Sc2ccccc2N2CCNCC2)c(C)c1 . Value?
Found: 9.79
